meta.source: patent US12692267B2

Tested on: HCT116 (human colon cancer)
assay-overview: Cancer cell viability, CCK-8, HCT116
Assay type: cell-based
study-conditions: HCT116, 48 hours, CCK-8; read-out: IC50 (uM, HCT116)
measurement-type: IC50 (µM)
Report as a plain number; the unit µM is understood.

Entry under test: O=C1C2=C(CCN(Cc3cccc(OC(F)(F)F)c3)C2)N2CCN=C2N1Cc1ccc(C(F)(F)F)cc1 [Example 3] . Its IC50 was 0.36

----------
Measured IC50 of individual entries
System: MDA-MB-231 (MDA 231, human breast adenocarcinoma)
assay-overview: Cancer cell viability, CCK-8, MDA-MB-231
Assay type: cell-based
study-conditions: Homo sapiens, MDA-MB-231; MDA 231, 48 hours, CCK-8; read-out: IC50 (uM, MDA 231)
Experimental: Cancer cell lines. […] The plate is incubated for 48 hours. CCK-8 solution is added directly to the cells.
# output: bare number, implied unit µM

The recorded IC50 with MDA-MB-231 (MDA 231, human breast adenocarcinoma) for O=C1C2=C(CCN(Cc3cccc(Cl)c3)C2)N2CCN=C2N1Cc1ccc(C(F)(F)F)cc1 was 0.016

The compound N#Cc1ccc(CN2CCC3=C(C2)C(=O)N(Cc2ccc(Cl)cc2)C2=NCCN23)cc1 , when measured on MDA-MB-231 (MDA 231, human breast adenocarcinoma), yielded IC50 of 3.4

----------
Test system: MDA-MB-231 (MDA 231, human breast adenocarcinoma)
assay-overview: Cancer cell viability, CCK-8, MDA-MB-231
Type: cell-based
study-conditions: Homo sapiens, MDA-MB-231; MDA 231, 48 hours, CCK-8; read-out: EC50 (uM, MDA 231)
measurement-type: EC50 (µM)
Write it as a number; the unit µM goes unstated.

Here is how some compounds turned out for EC50.
compound: N#Cc1cccc(Cc2nnc(C(=O)NCc3ccc(Cl)cc3)o2)c1 [Example 63]
unit: µM
EC50: 5

compound: Cn1c2c(c(=O)n(Cc3cccc(C(F)(F)F)c3)c1=O)CN(Cc1ccccc1)CC2 [Example 39]
unit: µM
EC50: 1.1

compound: N#Cc1cccc(CN2CCC3=C(C2)C(=O)N(Cc2ccc(C(F)(F)F)cc2)C2=NCCCN23)c1 [Ex. 62]
unit: µM
EC50: 0.021

Form: item N#Cc1cccc(CN2CCc3cnn(Cc4ccc(Cl)cc4)c(=O)c3C2)c1 [Example 85] ; test system MDA-MB-231 (MDA 231, human breast adenocarcinoma); EC50: 0.003

Value sought: EC50, system MDA-MB-231 (MDA 231, human breast adenocarcinoma), item Cc1nc2c(c(=O)n1Cc1ccc(Cl)cc1)CN(Cc1cccc(C#N)c1)CC2 [Example 61] . Result: 0.096
